# TARGET_UNDER_TEST: Human recombinant DHX9 protein (Homo sapiens (Human))
# TEST_NAME: DHX9 ATPase assay (ADP-Glo)
# Type: biochemical
PARAMETER: DHX9 Biochemical Max Inhibition

MOLECULE_SMILES: Cc1cc(C(=O)Nc2cc(Cl)cc(NS(C)(=O)=O)c2)cn1-c1ncc(N2CCOC2=O)cn1
TARGET_UNDER_TEST: Human recombinant DHX9 protein (Homo sapiens (Human))
MEASURED_NUMBER: 70.1
//
MOLECULE_SMILES: Cc1sc(C(=O)Nc2cc(Cl)cc(NS(C)(=O)=O)c2)cc1-c1ncc(N2CCC3(COC3)C2)cc1F
TARGET_UNDER_TEST: Human recombinant DHX9 protein (Homo sapiens (Human))
MEASURED_NUMBER: 74.3
//
MOLECULE_SMILES: Cc1sc(C(=O)Nc2cc(Cl)cc(NS(C)(=O)=O)c2)cc1-c1ncc(F)cc1-c1cncc(F)c1
TARGET_UNDER_TEST: Human recombinant DHX9 protein (Homo sapiens (Human))
MEASURED_NUMBER: 75.9
//
MOLECULE_SMILES: Cc1sc(C(=O)Nc2cc(Cl)cc(NS(C)(=O)=O)c2)cc1-c1ncccc1OCc1cncc(F)c1
TARGET_UNDER_TEST: Human recombinant DHX9 protein (Homo sapiens (Human))
MEASURED_NUMBER: 74.4
//
MOLECULE_SMILES: CS(=O)(=O)Nc1cc(Cl)cc(NC(=O)c2c[nH]c(-c3ncc(F)cc3F)c2)c1
TARGET_UNDER_TEST: Human recombinant DHX9 protein (Homo sapiens (Human))
MEASURED_NUMBER: 59
//
MOLECULE_SMILES: Cn1cc(C(=O)Nc2cc(F)cc(NS(C)(=O)=O)c2)cc1-c1ncc(F)cc1F
TARGET_UNDER_TEST: Human recombinant DHX9 protein (Homo sapiens (Human))
MEASURED_NUMBER: 78

* * *

# TARGET_UNDER_TEST: Human recombinant DHX9 protein (Homo sapiens (Human), UniProt Q08211)
# Sequence (Q08211 whole entry): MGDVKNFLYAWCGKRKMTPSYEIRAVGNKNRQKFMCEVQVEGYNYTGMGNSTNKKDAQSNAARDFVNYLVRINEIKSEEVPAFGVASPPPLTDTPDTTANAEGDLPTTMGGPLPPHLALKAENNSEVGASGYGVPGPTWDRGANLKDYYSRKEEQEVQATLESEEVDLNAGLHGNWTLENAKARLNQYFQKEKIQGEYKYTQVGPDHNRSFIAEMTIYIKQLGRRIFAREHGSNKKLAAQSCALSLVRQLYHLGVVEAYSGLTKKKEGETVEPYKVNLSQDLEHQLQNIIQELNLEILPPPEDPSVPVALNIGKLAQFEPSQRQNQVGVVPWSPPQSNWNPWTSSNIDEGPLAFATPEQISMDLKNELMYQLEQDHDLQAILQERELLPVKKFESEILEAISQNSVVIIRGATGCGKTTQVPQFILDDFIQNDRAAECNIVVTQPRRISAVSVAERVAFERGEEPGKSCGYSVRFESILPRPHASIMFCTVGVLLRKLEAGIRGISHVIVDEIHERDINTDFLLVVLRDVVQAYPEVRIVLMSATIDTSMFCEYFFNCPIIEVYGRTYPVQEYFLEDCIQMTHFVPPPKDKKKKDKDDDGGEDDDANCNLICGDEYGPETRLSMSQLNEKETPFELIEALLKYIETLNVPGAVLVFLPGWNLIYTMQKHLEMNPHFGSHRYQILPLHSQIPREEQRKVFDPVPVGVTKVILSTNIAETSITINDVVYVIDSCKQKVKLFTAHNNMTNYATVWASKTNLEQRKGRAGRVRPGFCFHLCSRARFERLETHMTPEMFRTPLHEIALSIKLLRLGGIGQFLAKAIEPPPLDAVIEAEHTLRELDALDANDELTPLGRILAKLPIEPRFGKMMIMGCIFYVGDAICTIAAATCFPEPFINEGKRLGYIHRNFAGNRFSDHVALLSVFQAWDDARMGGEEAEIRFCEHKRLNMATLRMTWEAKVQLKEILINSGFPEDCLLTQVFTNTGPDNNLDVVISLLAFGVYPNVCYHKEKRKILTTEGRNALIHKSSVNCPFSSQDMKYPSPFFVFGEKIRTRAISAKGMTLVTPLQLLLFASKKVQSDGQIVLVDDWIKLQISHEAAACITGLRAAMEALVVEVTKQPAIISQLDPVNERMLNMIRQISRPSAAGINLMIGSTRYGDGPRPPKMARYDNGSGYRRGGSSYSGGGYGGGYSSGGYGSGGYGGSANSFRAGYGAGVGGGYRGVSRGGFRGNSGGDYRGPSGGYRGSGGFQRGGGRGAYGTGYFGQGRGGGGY
# TEST_NAME: DHX9 ATPase assay (ADP-Glo)
# Format: biochemical
PARAMETER: DHX9 Biochemical Max Inhibition

COMPOUND: Cn1cc(C(=O)Nc2cc(Cl)cc(NS(C)(=O)=O)c2)cc1-c1ncncc1OCc1cc(F)cc(F)c1 [Example 627]
TARGET_UNDER_TEST: Human recombinant DHX9 protein (Homo sapiens (Human), UniProt Q08211)
DHX9 Biochemical Max Inhibition: 75.8
//
COMPOUND: Cn1cc(C(=O)Nc2cc(Cl)cc(NS(C)(=O)=O)c2)cc1-c1ncc(F)cc1-c1cncc(F)c1 [Example 604]
TARGET_UNDER_TEST: Human recombinant DHX9 protein (Homo sapiens (Human), UniProt Q08211)
DHX9 Biochemical Max Inhibition: 69.1
//
COMPOUND: Cn1cc(C(=O)Nc2cc(Cl)cc(NS(C)(=O)=O)c2)cc1-c1ccc(C2CCOCC2)cn1 [Example 704]
TARGET_UNDER_TEST: Human recombinant DHX9 protein (Homo sapiens (Human), UniProt Q08211)
DHX9 Biochemical Max Inhibition: 78.1
//
COMPOUND: CC(C)Oc1cnc(-c2csc(C(=O)Nc3cc(Cl)cc(NS(C)(=O)=O)c3)c2)nc1 [Example 457]
TARGET_UNDER_TEST: Human recombinant DHX9 protein (Homo sapiens (Human), UniProt Q08211)
DHX9 Biochemical Max Inhibition: 58.7
//
COMPOUND: CS(=O)(=O)Nc1cc(Cl)cc(NC(=O)c2cc(C3CC3)n(-c3ncc(F)cn3)c2)c1 [Example 451]
TARGET_UNDER_TEST: Human recombinant DHX9 protein (Homo sapiens (Human), UniProt Q08211)
DHX9 Biochemical Max Inhibition: 73.2
//
COMPOUND: CS(=O)(=O)Nc1cc(Cl)cc(NC(=O)c2cc(-c3ncc(F)cn3)c(Cl)s2)c1 [Example 450]
TARGET_UNDER_TEST: Human recombinant DHX9 protein (Homo sapiens (Human), UniProt Q08211)
DHX9 Biochemical Max Inhibition: 62.8

Data origin: patent US20240316047A1
